- TESTED_ON: Proton Pump (H^+,K^+-ATPase) (Sus scrofa, UniProt P19156)
- Construct: gastric vesicles were isolated from porcine stomachs
- Sequence (P19156 2-1034 limits assumed): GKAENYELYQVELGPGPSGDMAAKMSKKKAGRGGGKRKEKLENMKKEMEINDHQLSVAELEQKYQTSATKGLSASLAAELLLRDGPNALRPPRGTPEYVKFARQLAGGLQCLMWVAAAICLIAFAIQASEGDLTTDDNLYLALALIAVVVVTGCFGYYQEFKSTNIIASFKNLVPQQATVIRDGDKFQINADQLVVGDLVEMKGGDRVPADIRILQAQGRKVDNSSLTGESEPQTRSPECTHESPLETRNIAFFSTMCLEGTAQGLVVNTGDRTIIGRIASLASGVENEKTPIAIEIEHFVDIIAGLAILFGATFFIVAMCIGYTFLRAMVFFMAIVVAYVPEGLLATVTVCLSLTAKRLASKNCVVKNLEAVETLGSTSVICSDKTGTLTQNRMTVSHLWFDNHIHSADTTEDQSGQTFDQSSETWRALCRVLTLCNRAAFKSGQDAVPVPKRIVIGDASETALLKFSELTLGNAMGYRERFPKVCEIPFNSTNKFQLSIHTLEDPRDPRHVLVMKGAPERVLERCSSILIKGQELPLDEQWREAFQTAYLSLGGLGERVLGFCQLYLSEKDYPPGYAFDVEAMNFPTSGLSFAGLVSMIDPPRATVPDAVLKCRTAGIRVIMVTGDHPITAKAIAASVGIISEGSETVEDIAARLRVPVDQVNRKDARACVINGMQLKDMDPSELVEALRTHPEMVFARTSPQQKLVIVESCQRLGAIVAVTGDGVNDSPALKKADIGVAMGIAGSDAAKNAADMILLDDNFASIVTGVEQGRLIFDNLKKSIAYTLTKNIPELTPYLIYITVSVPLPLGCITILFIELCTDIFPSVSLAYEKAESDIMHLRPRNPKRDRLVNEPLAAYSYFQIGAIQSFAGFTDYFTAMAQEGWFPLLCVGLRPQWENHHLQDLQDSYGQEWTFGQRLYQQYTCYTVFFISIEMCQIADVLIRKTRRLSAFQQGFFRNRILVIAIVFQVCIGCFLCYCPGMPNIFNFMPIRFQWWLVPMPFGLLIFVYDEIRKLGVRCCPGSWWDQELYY
- Sequence (P18434 whole entry partner): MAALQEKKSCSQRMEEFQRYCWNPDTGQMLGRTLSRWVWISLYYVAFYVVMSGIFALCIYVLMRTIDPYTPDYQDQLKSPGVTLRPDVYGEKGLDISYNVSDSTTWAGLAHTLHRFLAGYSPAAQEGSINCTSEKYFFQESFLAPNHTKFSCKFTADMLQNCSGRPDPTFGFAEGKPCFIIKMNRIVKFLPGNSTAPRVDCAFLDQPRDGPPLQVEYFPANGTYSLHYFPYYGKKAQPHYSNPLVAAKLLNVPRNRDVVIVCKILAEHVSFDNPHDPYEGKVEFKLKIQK
- EXPERIMENT_SUMMARY: Inhibitory activity on proton pump (H+,K+-ATPase) activity, porcine gastric vesicles, malachite green readout
- CONDITION_SET: porcine gastric vesicles, pH 6.5, 8 mM KCl, 0.2 mM ATP
Counter-ions that a name gives are not always drawn.

COMPOUND: Cc1cccc(C)c1CNc1cc(NC(=O)NC23CC(C2)C3)cn2c(C)c(C)nc12 [Example 29, hydrochloride]
IC50: > 500 nM
//
COMPOUND: Cc1cccc(C)c1CNc1cc(NC(=O)N2CCCC2)cn2c(C)c(C)nc12 [Example 11]
IC50: 100 to 500 nM
//
COMPOUND: Cc1cccc(C)c1CNc1cc(NC(=O)NCCN)cn2c(C)c(C)nc12 [Example 37, hydrochloride]
IC50: 50 to 100 nM
//
COMPOUND: Cc1cc(F)cc(C)c1CNc1cc(NC(=O)CO)cn2c(C)c(C)nc12.O=C(O)CC(O)(CC(=O)O)C(=O)O [Example 86, citrate]
IC50: < 50 nM

----------
- TESTED_ON: Proton Pump (H^+,K^+-ATPase) (Sus scrofa, UniProt P19156)
- Construct: gastric vesicles were isolated from porcine stomachs
- EXPERIMENT_SUMMARY: Inhibitory activity on proton pump (H+,K+-ATPase) activity, porcine gastric vesicles, malachite green readout
- CONDITION_SET: porcine gastric vesicles, pH 6.5, 8 mM KCl, 0.2 mM ATP
Where a name gives a salt, the structure may show the parent alone.

COMPOUND: Cc1cccc(C)c1CNc1cc(NC(=O)N(C)C)cn2c(C)c(C)nc12 [Example 43, hydrochloride]
IC50: < 50 nM
--
COMPOUND: Cc1cccc(C)c1CNc1cc(NC(=O)[C@H](C)N)cn2c(C)c(C)nc12 [Example 19, hydrochloride]
IC50: 50 to 100 nM
--
COMPOUND: Cc1cccc(C)c1CNc1cc(NS(=O)(=O)C2CCC2)cn2c(C)c(C)nc12
IC50: > 500 nM
--
COMPOUND: Cc1cccc(C)c1CNc1cc(NC(=O)C(C)(C)C)cn2c(C)c(C)nc12
IC50: > 500 nM
--
COMPOUND: Cc1cccc(C)c1CNc1cc(NC(=O)N2CC3(CCC3)C2)cn2c(C)c(C)nc12 [Example 66, citrate]
IC50: 100 to 500 nM
--
COMPOUND: Cc1cccc(C)c1CNc1cc(NC(=O)NC2CCC2)cn2c(C)c(C)nc12 [Example 23, hydrochloride]
IC50: 50 to 100 nM
--
COMPOUND: Cc1cccc(C)c1CNc1cc(N2C(=O)CNC2=O)cn2c(C)c(C)nc12
IC50: < 50 nM
--
COMPOUND: Cc1cccc(C)c1CNc1cc(NC(=O)CN(C)C)cn2c(C)c(C)nc12
IC50: 100 to 500 nM
--
COMPOUND: Cc1cc(F)cc(C)c1CNc1cc(NC(=O)N(C)C)cn2c(C)c(C)nc12 [Example 49, hydrochloride]
IC50: < 50 nM
--
COMPOUND: Cc1cccc(C)c1CNc1cc(NC(=O)[C@@H]2CCN2)cn2c(C)c(C)nc12 [Example 35, hydrochloride]
IC50: 50 to 100 nM
--
COMPOUND: COC(=O)c1cc(NCc2c(C)cccc2C)c2nc(C)c(C)n2c1 [Comparative Example 2, reference compound]
IC50: > 500 nM
--
COMPOUND: Cc1cccc(C)c1CNc1cc(NC(=O)[C@H]2CCN2)cn2c(C)c(C)nc12 [Example 36, hydrochloride]
IC50: 50 to 100 nM
--
COMPOUND: Cc1cccc(C)c1CNc1cc(NC(=O)CCN)cn2c(C)c(C)nc12 [Example 99, hydrochloride]
IC50: 50 to 100 nM
--
COMPOUND: CNC(=O)CNC(=O)Nc1cc(NCc2c(C)cccc2C)c2nc(C)c(C)n2c1 [Example 47, hydrochloride]
IC50: 50 to 100 nM
--
COMPOUND: Cc1cc(F)cc(C)c1CNc1cc(NC(=O)CCO)cn2c(C)c(C)nc12.O=C(O)CC(O)(CC(=O)O)C(=O)O [Example 101, citrate]
IC50: < 50 nM
--
COMPOUND: CC(=O)O[C@@H](C)C(=O)Nc1cc(NCc2c(C)cc(F)cc2C)c2nc(C)c(C)n2c1
IC50: > 500 nM
--
COMPOUND: CNC(=O)Nc1cc(NCc2c(C)cc(F)cc2C)c2nc(C)c(C)n2c1 [Example 44, hydrochloride]
IC50: < 50 nM
--
COMPOUND: Cc1cccc(C)c1CNc1cc(NC(=O)CCOCCC(=O)O)cn2c(C)c(C)nc12
IC50: > 500 nM
--
COMPOUND: CNC(=O)Nc1cc(NCc2c(C)cccc2C)c2nc(C)c(C)n2c1 [Example 33, hydrochloride]
IC50: < 50 nM
--
COMPOUND: CC(=O)NCC(=O)Nc1cc(NCc2c(C)cccc2C)c2nc(C)c(C)n2c1
IC50: 100 to 500 nM
--
COMPOUND: Cc1cccc(C)c1CNc1cc(N2C(=O)NCCNC2=O)cn2c(C)c(C)nc12
IC50: 100 to 500 nM
--
COMPOUND: Cc1cccc(C)c1CNc1cc(NC(=O)[C@H]2CCCCN2)cn2c(C)c(C)nc12 [Example 90, hydrochloride]
IC50: 50 to 100 nM
--
COMPOUND: Cc1cccc(C)c1CNc1cc(NC(=O)N2Cc3ccccc3C2)cn2c(C)c(C)nc12
IC50: 50 to 100 nM
--
COMPOUND: COCC(=O)Nc1cc(NCc2c(C)cccc2C)c2nc(C)c(C)n2c1
IC50: < 50 nM
--
COMPOUND: Cc1cccc(C)c1CNc1cc(NC(=O)N2CCC(c3ccccc3)C2)cn2c(C)c(C)nc12 (centres unmarked)
IC50: 100 to 500 nM
--
COMPOUND: Cc1cccc(C)c1CNc1cc(NC(=O)C2CCCCC2)cn2c(C)c(C)nc12
IC50: > 500 nM
